assayed_target: T1, ROR1 naturally expressed on human tumor cell lines (A549, Jeko-1, SW620, PA-1) (human, UniProt Q01973 30-937)
T1 construct: whole, on cells; also called cells expressing ROR1
T1 sequence (Q01973 30-937): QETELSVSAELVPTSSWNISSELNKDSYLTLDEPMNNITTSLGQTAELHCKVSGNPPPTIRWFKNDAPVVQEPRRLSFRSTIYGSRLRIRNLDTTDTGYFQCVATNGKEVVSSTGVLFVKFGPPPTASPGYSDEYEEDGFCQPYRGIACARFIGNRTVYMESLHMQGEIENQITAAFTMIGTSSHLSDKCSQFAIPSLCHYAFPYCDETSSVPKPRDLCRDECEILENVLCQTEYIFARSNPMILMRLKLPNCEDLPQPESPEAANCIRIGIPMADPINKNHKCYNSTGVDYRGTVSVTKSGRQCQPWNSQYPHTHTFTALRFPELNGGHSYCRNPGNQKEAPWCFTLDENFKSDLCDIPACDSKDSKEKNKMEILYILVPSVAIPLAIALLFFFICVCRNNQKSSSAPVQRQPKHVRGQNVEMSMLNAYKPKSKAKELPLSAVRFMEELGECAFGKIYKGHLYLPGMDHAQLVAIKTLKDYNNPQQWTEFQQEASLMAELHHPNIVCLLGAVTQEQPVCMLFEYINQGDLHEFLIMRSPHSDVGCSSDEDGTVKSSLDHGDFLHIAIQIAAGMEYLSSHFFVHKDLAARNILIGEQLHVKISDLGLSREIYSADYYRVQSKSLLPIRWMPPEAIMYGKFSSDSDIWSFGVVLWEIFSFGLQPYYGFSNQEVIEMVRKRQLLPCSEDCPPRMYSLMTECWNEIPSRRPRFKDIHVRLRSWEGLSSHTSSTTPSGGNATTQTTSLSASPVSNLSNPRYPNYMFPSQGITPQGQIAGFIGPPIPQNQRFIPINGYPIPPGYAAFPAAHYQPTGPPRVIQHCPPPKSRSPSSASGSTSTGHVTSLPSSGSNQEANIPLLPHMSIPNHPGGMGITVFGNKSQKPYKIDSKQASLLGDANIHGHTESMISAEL
protocol_summary: FACS on Jeko-1 cells naturally expressing ROR1
Below: a set of entries, each annotated with reported Top (MFI).
Give just the numeric value; MFI need not be written.

Below, 3 binders whose answers are already recorded.
hz137G11D10-2.2 (antibody, human IgG1, kappa, V domains shown, Humanized, human IgG1/kappa) VH: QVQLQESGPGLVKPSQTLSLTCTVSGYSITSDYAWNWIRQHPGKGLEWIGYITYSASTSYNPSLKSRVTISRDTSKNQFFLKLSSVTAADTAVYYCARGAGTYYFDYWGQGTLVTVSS VL: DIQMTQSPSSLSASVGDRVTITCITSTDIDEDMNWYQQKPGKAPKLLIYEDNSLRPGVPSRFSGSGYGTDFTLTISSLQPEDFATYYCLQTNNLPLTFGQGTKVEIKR = 86100
hz137G11D10-2.1 (antibody, human IgG1, kappa, V domains shown, Humanized, human IgG1/kappa) VH: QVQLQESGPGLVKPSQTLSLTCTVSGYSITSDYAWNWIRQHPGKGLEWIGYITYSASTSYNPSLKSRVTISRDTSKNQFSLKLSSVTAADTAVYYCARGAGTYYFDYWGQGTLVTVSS VL: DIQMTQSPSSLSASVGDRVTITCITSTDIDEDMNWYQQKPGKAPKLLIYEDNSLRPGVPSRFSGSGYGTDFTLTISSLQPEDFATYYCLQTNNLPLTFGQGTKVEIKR = 88000
hz137G11D10-3.1 (antibody, human IgG1, kappa, V domains shown, Humanized, human IgG1/kappa) VH: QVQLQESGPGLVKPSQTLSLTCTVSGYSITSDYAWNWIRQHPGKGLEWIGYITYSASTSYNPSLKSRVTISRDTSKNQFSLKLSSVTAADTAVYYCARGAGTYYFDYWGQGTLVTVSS VL: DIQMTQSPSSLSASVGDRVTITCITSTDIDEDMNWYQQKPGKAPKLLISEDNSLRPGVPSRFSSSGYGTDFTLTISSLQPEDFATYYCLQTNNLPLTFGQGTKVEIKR = 87000

Turning now to a further binder:
**Q:** Which Top (MFI) is reported for this binder? UC-961 (antibody, V domains shown) VH: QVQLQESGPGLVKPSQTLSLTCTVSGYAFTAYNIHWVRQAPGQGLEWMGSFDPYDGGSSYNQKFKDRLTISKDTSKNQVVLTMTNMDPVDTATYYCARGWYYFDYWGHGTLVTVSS VL: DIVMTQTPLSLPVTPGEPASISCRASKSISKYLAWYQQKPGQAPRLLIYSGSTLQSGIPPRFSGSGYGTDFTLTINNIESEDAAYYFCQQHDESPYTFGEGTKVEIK
**A:** 83200
